Target: horseradish peroxidase (HRP) tagged delF508-CFTR (Homo sapiens, UniProt P13569, DEL508-508)
Construct: expressed in transfected cells
Sequence (P13569 with tags, fused parts or gaps DEL508-508): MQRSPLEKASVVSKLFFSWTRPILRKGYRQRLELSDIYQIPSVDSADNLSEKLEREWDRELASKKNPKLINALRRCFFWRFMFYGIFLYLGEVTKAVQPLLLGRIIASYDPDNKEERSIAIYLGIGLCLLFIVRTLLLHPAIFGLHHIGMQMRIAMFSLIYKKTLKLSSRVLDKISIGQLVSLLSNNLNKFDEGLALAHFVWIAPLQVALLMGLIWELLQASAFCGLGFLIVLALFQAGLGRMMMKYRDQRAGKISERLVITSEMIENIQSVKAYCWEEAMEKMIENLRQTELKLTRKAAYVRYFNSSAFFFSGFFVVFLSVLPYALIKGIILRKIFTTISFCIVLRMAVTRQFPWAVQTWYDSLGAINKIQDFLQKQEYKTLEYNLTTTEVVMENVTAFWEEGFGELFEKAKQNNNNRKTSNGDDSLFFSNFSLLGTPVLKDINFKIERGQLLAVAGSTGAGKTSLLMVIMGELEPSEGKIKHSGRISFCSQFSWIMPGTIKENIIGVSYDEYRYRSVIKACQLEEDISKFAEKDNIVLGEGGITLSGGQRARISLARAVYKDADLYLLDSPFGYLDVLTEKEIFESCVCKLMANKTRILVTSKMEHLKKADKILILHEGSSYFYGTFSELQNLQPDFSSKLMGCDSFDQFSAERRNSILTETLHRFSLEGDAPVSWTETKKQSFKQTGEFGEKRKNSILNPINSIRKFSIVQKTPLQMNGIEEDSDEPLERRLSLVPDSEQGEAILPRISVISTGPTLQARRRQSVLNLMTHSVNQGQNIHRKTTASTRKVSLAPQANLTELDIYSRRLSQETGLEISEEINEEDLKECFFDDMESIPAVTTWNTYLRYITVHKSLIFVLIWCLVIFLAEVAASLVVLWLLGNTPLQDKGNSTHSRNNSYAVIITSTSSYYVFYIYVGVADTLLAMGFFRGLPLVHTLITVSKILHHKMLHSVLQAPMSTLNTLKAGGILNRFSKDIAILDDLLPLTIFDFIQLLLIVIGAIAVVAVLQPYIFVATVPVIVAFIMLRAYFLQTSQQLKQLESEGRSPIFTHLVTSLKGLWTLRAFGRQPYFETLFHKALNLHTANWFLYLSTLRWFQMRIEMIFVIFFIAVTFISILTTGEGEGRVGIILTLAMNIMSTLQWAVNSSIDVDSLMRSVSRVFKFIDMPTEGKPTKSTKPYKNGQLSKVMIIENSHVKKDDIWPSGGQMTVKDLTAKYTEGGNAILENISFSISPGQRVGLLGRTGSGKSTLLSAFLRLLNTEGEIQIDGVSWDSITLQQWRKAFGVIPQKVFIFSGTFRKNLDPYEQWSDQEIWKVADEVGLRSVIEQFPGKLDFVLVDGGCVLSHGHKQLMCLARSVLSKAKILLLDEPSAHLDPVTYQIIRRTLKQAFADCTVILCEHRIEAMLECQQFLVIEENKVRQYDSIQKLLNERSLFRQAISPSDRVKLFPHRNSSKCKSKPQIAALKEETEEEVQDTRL
Assay: Measurement of delF508-CFTR-HRP surface expression in CFBE41o- cells
Type: cell-based
Conditions: delF508-CFTR-HRP surface expression, CFBE41o- cells; read-out: DelF508-CFTR-HRP EC50
Counter-ions that a name gives are not always drawn.
Binary call on EC50 with cut-off 3 µM: strictly below means T, and equality or higher means F.

molecule="Cc1ccccc1-c1nc(NS(=O)(=O)c2cccc(N3CCC(C)(C(=O)O)CC3)n2)ccc1Cl [Example 255]" classification=F
molecule="Cc1ccc(C#N)cc1-c1nc(NS(=O)(=O)c2cccc(N3CC(C)(O)C3)n2)ccc1Cl [Example 305]" classification=T
molecule="Cc1c(C#N)cccc1-c1nc(NS(=O)(=O)c2cccc(N3CC(C)(O)C3)n2)ccc1C(F)(F)F [Example 308]" classification=F
molecule="Cc1ccccc1-c1nc(NS(=O)(=O)c2cccc(N3CCN(CCO)CC3)n2)ccc1C(F)(F)F [Example 182, Hydrochloride]" classification=F
molecule="Cc1ccc(NS(=O)(=O)c2cccc(N)n2)nc1-c1ccccc1Cl [Example 77, Hydrochloride]" classification=T
molecule="Cc1ccccc1-c1nc(NS(=O)(=O)c2cccc(N[C@@H]3CCOC[C@H]3O)n2)ccc1C(F)(F)F [Example 274]" classification=T
molecule="Cc1cccc(C)c1-c1nc(NS(=O)(=O)c2cccc(N3CCN(C)CC3=O)n2)ccc1Cl [Example 197]" classification=F

* * *

Target: delF508-CFTR (Homo sapiens, UniProt P13569, DEL508-508)
Construct: functional activity of the CFTR channel (Chloride ion transport) in patient derived primary human bronchial epithelial cells
Sequence (P13569 with tags, fused parts or gaps DEL508-508): as above
Assay: Measurement of delF508-CFTR functional activity in primary human bronchial epithelial cells (HBECs) using Multi-Transepithelial Clamp Circuit (MTECC-24) assay
Details: primary CF HBECs; test compound added 24h before assay, in the presence of potentiator; mean of at least two replicates; read-out: MTECC24 CFHBEC- EC50
pEC50: −log10 of the molar value. Counter-ions that a name gives are not always drawn.
measurement kind: pEC50

compound=Nc1cccc(S(=O)(=O)Nc2ccc(C(F)(F)F)c(-c3ccccc3C(F)(F)F)n2)n1 measurement_target="delF508-CFTR (Homo sapiens, UniProt P13569, DEL508-508)" measurement_kind=pEC50 value_measured=8.10
compound=Cc1c(F)cccc1-c1nc(NS(=O)(=O)c2cccc(N3CC(O)C3)n2)ccc1Cl measurement_target="delF508-CFTR (Homo sapiens, UniProt P13569, DEL508-508)" measurement_kind=pEC50 value_measured=7.50
compound="Cc1cccc(C)c1-c1nc(NS(=O)(=O)c2cccc(N3CCN[C@@H](CO)C3)n2)ccc1C(F)(F)F [Example 172, Hydrochloride]" measurement_target="delF508-CFTR (Homo sapiens, UniProt P13569, DEL508-508)" measurement_kind=pEC50 value_measured=6.50
compound=O=C(O)[C@@H]1CCCN(c2cccc(S(=O)(=O)Nc3ccc(C(F)(F)F)c(-c4ccccc4C4CCC4)n3)n2)C1 measurement_target="delF508-CFTR (Homo sapiens, UniProt P13569, DEL508-508)" measurement_kind=pEC50 value_measured=9.10
compound=Cc1ccccc1-c1nc(NS(=O)(=O)c2cccc(N3CCN4C[C@@H](F)C[C@@H]4C3)n2)ccc1C(F)(F)F measurement_target="delF508-CFTR (Homo sapiens, UniProt P13569, DEL508-508)" measurement_kind=pEC50 value_measured=7.81
compound="Cc1ccccc1-c1nc(NS(=O)(=O)c2cccc(N3CC4C(N)C4C3)n2)ccc1C(F)(F)F (stereo not shown) [Example 107, Hydrochloride]" measurement_target="delF508-CFTR (Homo sapiens, UniProt P13569, DEL508-508)" measurement_kind=pEC50 value_measured=6.96
compound="Cc1ccccc1-c1nc(NS(=O)(=O)c2cccc(N3CC[C@H](N)C3)n2)ccc1C(F)(F)F [Example 120, Hydrochloride]" measurement_target="delF508-CFTR (Homo sapiens, UniProt P13569, DEL508-508)" measurement_kind=pEC50 value_measured=7.43

* * *

Biological target: horseradish peroxidase (HRP) tagged delF508-CFTR (Homo sapiens, UniProt P13569, DEL508-508)
Construct: expressed in transfected cells
Test: Measurement of delF508-CFTR-HRP surface expression in CFBE41o- cells;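 on DelF508-CFTR-HRP Amax %: percent efficacy relative to reference corrector lumacaftor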
Type: cell-based
Conditions: delF508-CFTR-HRP surface expression, CFBE41o- cells; read-out: DelF508-CFTR-HRP Amax %
Counter-ions that a name gives are not always drawn.
Item-by-item account of Emax
measurement kind: Emax (%)

molecule=CC1(C(=O)O)CCN(c2cccc(S(=O)(=O)Nc3ccc(C(F)(F)F)c(-c4ccccc4Cl)n3)n2)CC1 value_measured=426
molecule=Cc1ccccc1-c1nc(NS(=O)(=O)c2cccc(N3CCN(C(=O)OC(C)(C)C)C[C@@H]3C(=O)O)n2)ccc1C(F)(F)F value_measured=245
molecule=Cc1ccc(C(F)(F)F)cc1-c1nc(NS(=O)(=O)c2cccc(N3CC(C)(O)C3)n2)ccc1Cl value_measured=378
molecule="Cc1ccccc1-c1nc(NS(=O)(=O)c2cccc(N3CCN(C(=O)CN)CC3)n2)ccc1C(F)(F)F [Example 191, hydrochloride]" value_measured=206
molecule=Cc1ccccc1-c1nc(NS(=O)(=O)c2cccc(N3CCN(C(N)=O)CC3)n2)ccc1C(F)(F)F value_measured=149
molecule=Cc1c(F)cccc1-c1nc(NS(=O)(=O)c2cccc(N3CCC(C)(C(=O)O)CC3)n2)ccc1C(F)(F)F value_measured=481
molecule=Cc1cccc(C)c1-c1nc(NS(=O)(=O)c2ccnc(N)c2)ccc1Cl value_measured=632

* * *

Below: a set of entries, each annotated with reported EC50.
Target: horseradish peroxidase (HRP) tagged delF508-CFTR (Homo sapiens, UniProt P13569, DEL508-508)
Construct: expressed in transfected cells
Test: Measurement of delF508-CFTR-HRP surface expression in CFBE41o- cells
Assay type: cell-based
Conditions: delF508-CFTR-HRP surface expression, CFBE41o- cells; read-out: DelF508-CFTR-HRP EC50
Structures can show the parent of a compound that is named as a salt.
measurement kind: EC50

compound=COc1ccc(Cl)c(-c2nc(NS(=O)(=O)c3cccc(N4CCC(C)(C(=O)O)CC4)n3)ccc2Cl)c1 value_measured="3650 nM"
compound=CC(C)c1ccccc1-c1nc(NS(=O)(=O)c2ccc(N)nc2)ccc1Cl value_measured="1240 nM"
compound="Cc1ccc(C(F)(F)F)cc1-c1nc(NS(=O)(=O)c2cccc(N3CCNCC3)n2)ccc1Cl [Example 169, Hydrochloride]" value_measured="4000 nM"
compound=Cc1ccc(OC(F)(F)F)cc1-c1nc(NS(=O)(=O)c2cccc(N)n2)ccc1Cl value_measured="3860 nM"
compound=Cc1ccccc1-c1nc(NS(=O)(=O)c2cccc(N)n2)ccc1C1CC1 value_measured="3070 nM"
compound=Cc1ccccc1-c1nc(NS(=O)(=O)c2cccc(N3CCC(C(=O)O)CC3)n2)ccc1C(F)(F)F value_measured="2810 nM"
compound="Cc1ccccc1-c1nc(NS(=O)(=O)c2cccc(N[C@@H]3COCC[C@@H]3O)n2)ccc1C(F)(F)F (single isomer, unassigned)" value_measured="2010 nM"
compound="CO[C@H]1CNCC[C@H]1Nc1cccc(S(=O)(=O)Nc2ccc(C(F)(F)F)c(-c3ccccc3C)n2)n1 (racemic) [Example 115, Hydrochloride]" value_measured="3810 nM"
compound=CCOC(=O)C1(C)CCN(c2cccc(S(=O)(=O)Nc3ccc(C(F)(F)F)c(-c4ccccc4C)n3)n2)CC1 value_measured="1570 nM"
compound="Cc1c(F)cccc1-c1nc(NS(=O)(=O)c2cccc(N3CCNCC3)n2)ccc1C(F)(F)F [Example 151, Hydrochloride]" value_measured="3690 nM"
compound=O=S(=O)(Nc1ccc(C(F)(F)F)c(-c2ccc(F)cc2Cl)n1)c1cccc(N2CC(O)C2)n1 value_measured="2740 nM"
compound=Cc1cccc(C)c1-c1nc(NS(=O)(=O)c2cccc(N3CCNC(=O)C3)n2)ccc1Cl value_measured="2140 nM"
compound=Cc1cc(F)ccc1-c1nc(NS(=O)(=O)c2ccc(N)nc2)ccc1Cl value_measured="3550 nM"
compound="Cc1ccccc1-c1nc(NS(=O)(=O)c2cccc(N3CCNC[C@@H]3C)n2)ccc1C(F)(F)F [Example 170, Hydrochloride]" value_measured="2200 nM"
compound="Cc1ccc(F)cc1-c1nc(NS(=O)(=O)c2cccc(N3CCNCC3)n2)ccc1Cl [Example 193, hydrochloride]" value_measured="3920 nM"
compound=Cc1ccccc1-c1nc(NS(=O)(=O)c2cccc(N3CC(O)C3)n2)ccc1C(F)(F)F value_measured="1530 nM"
compound=Nc1cc(S(=O)(=O)Nc2ccc(Cl)c(-c3ccccc3C(F)(F)F)n2)ccn1 value_measured="2620 nM"
compound=Cc1ccc(F)cc1-c1nc(NS(=O)(=O)c2cccc(N3CC(O)C3)n2)ccc1C(F)(F)F value_measured="1610 nM"
compound=COc1ccc(F)cc1-c1nc(NS(=O)(=O)c2cccc(N3CC(O)C3)n2)ccc1C(F)(F)F value_measured="2700 nM"
compound="Cc1ccccc1-c1nc(NS(=O)(=O)c2cccc(OC3COCC3=O)n2)ccc1C(F)(F)F (racemic)" value_measured="2970 nM"
compound=Cc1ccc(F)cc1-c1nc(NS(=O)(=O)c2cccc(N)n2)ccc1Cl value_measured="1510 nM"
compound=Cc1cccc(C)c1-c1nc(NS(=O)(=O)c2cccc(N3CCC(O)(C(=O)O)CC3)n2)ccc1Cl value_measured="4140 nM"
compound=[2H]C([2H])([2H])c1ccccc1-c1nc(NS(=O)(=O)c2cccc(N)n2)ccc1Cl value_measured="1760 nM"
compound=Cc1ccccc1-c1nc(NS(=O)(=O)c2ccnc(N)c2)ccc1Cl value_measured="1080 nM"
compound="Cc1cccc(C)c1-c1nc(NS(=O)(=O)c2cccc(N3CCN[C@H](CO)C3)n2)ccc1C(F)(F)F [Example 173, Hydrochloride]" value_measured="2370 nM"
compound=Cc1ccccc1-c1nc(NS(=O)(=O)c2cccnc2N)ccc1Cl value_measured="3780 nM"
compound=Cc1ccc(F)cc1-c1nc(NS(=O)(=O)c2cccc(N3CCN(C(=O)OC(C)(C)C)CC3)n2)ccc1Cl value_measured="1490 nM"
compound=CCCC1(C(=O)O)CCN(c2cccc(S(=O)(=O)Nc3ccc(C(F)(F)F)c(-c4ccccc4CC)n3)n2)CC1 value_measured="870 nM"
compound=COC(=O)C1(O)CCN(c2cccc(S(=O)(=O)Nc3ccc(Cl)c(-c4c(C)cccc4C)n3)n2)CC1 value_measured="3800 nM"
compound=Cc1ccccc1-c1nc(NS(=O)(=O)c2cccc(N3CCN(C)C(=O)C3)n2)ccc1C(F)(F)F value_measured="3060 nM"
